# Test system: P. falciparum 3D7 trophozoites
# PROTOCOL DETAILS: Metabolomic fingerprint profiling LC-MS
# Type: cell-based, Plasmodium falciparum
# RUN PARAMETERS: metabolite level change after treatment
QUANTITY NAME: cyclic-AMP

Recorded cyclic-AMP, per entry:
CCc1c(C)c(=N)c2ccccc2n1C :: -0.03098
O=[N+]([O-])c1ccc(C=NNc2nc3ccccc3[nH]2)cc1 :: 0.0305
Cc1ccc(Nc2nc(NCCO)c3ccccc3n2)cc1C :: 0.8549
Cc1cc(C)c2c(c1)OCN(Cc1ccccc1Cl)C2 :: -0.8187

What value of measured cyclic-AMP is listed for COc1ccc2c(c1)OC(O)(C(F)(F)C(F)(F)F)CC2=O (stereo not shown) ?
-1.0489

The measured values listed here are drawn from paper PMC4965013.
